Would you kindly list pEC50 for each of these molecules?
- Tested on: Plasmodium falciparum
- experimental-details: NOVARTIS: Inhibition of Plasmodium falciparum W2 (drug-resistant) proliferation in erythrocyte-based infection assay
- Type: functional, organism-based
- condition-set: Plasmodium falciparum, W2; read-out: EC50
Numbers only, as −log10 of the molar value.

molecule	pEC50
CCCCCCN(C(=O)COCc1ccccc1)C(CC)c1nc2ccccc2c(=O)n1-c1ccc(F)c(Cl)c1 (stereo not drawn)	6.09
Cc1nc2ccc(-c3ccc4nc(C)[nH]c4c3)cc2[nH]1	6.07

Could you now consider this next molecule?
QUERY: Name the reported pEC50 value associated with the molecule COc1ccc(C(=O)C[N+]2=C(C)c3ccc(C)n3CC2)cc1
RESULT: 5.89
